Origin of the recorded values: patent US8916516B2

system: Fusarium solani 3 (FS3); test: Antifungal MIC (Example 4); format: cell-based; conditions: Fusarium solani 3; peptides; Tables 4 and 5
MEASURED PROPERTY: MIC values (>80% reduction) FS3 (µM)

SUBSTANCE	MEASURED TARGET	VALUE MEASURED
RRKRRKRRRRRKRRKRRR (Artificial polypeptide designated MU 16) [MU_16]	Fusarium solani 3 (FS3)	1.25
RRWRKRWRKWRWRKRWRK (Artificial polypeptide designated MU 28) [MU_28, 42]	Fusarium solani 3 (FS3)	1.25
WRKWRKRWW (Artificial polypeptide designated MU 45) [MU_45, 87; monomer on which MU 4 is based]	Fusarium solani 3 (FS3)	40
LRKLRKRLLRLRKLRKRLLR (Artificial polypeptide designated MU 82) [MU_82, 21]	Fusarium solani 3 (FS3)	2.5
Ac-LRKLRKRLLLRKLRKRLL-NH2 [MU_10]	Fusarium solani 3 (FS3)	2.5
MRKMRKRMMMRKMRKRMM (Artificial polypeptide designated MU 16) [MU_5]	Fusarium solani 3 (FS3)	20
Ac-WRKWRKRWWWRKWRKRWW-NH2 [MU_4]	Fusarium solani 3 (FS3)	0.3
WRWRRRWRKWRWRRRWRK (Artificial polypeptide designated MU 25) [MU_25, 88]	Fusarium solani 3 (FS3)	10
WRWRKRWRKWRWRKRWRK (Artificial polypeptide designated MU 27) [MU_27]	Fusarium solani 3 (FS3)	0.6
NRKNRKRNNNRKNRKRNN (Artificial polypeptide designated MU 11) [MU_11, 80]	Fusarium solani 3 (FS3)	40
WRWKKKWRKWRWKKKWRK (Artificial polypeptide designated MU 26) [MU_26, 89]	Fusarium solani 3 (FS3)	5
YRKYRKRYYYRKYRKRYY (Artificial polypeptide designated GIN 41 or MU6) [MU_6]	Fusarium solani 3 (FS3)	5

* * *

System: fungi
Type: cell-based
Conditions: fungus not specified; read-out: IC50 value for inhibiting fungal growth
Experimental: Four compounds were supplied as an aqueous solution, 400 μM. Serial dilutions of each test peptide were prepared in addition to a control, which was a conventional antifungal drug, Amphoteracin B. Amphteracin B is obtained from Invitrogen or Melford laboratories. […] Candida and S. aureus plates were read after 24 hrs incubation and the Aspergillus and Fusarium strains read after 48 hrs. […]
MEASURED PROPERTY: IC50

SUBSTANCE	VALUE MEASURED
Ac-WRKWRKRWWWRKWRKRWW-NH2 [MU_4]	≤ 2500 nM

* * *

tested on: Fusarium solani 4 (FS4); experiment: Antifungal MIC (Example 4); assay type: cell-based; settings: Fusarium solani 4; peptides; Tables 4 and 5

SUBSTANCE	MIC values (>80% reduction) FS4
SRKSRKRSSSRKSRKRSS (Artificial polypeptide designated MU 13) [MU_13, 81]	>40 µM
FRKFRKRFFFRKFRKRFF (Artficial polypeptide designated MU7) [MU_7]	20 µM
MRKMRKRMMMRKMRKRMM (Artificial polypeptide designated MU 16) [MU_5]	40 µM
RRKRRKRRRRRKRRKRRR (Artificial polypeptide designated MU 16) [MU_16]	2.5 µM
CRKCRKRCCCRKCRKRCC (Artficial polypeptide designated MU 12) [MU_12]	5 µM
QRKQRKRQQQRKQRKRQQ (Artificial polypeptide designated MU 9) [MU_9, 79]	>40 µM
VRKVRKRVVVRKVRKRVV (Artificial polypeptide designated MU 14) [MU_14, 82]	>40 µM
WRWRRRWRKWRWRRRWRK (Artificial polypeptide designated MU 25) [MU_25, 88]	20 µM
Ac-WRKWRKRWWWRKWRKRWW-NH2 [MU_4]	0.3 µM
NRKNRKRNNNRKNRKRNN (Artificial polypeptide designated MU 11) [MU_11, 80]	>40 µM
ARKARKRAAARKARKRAA (Artificial polypeptide designated MU 2) [MU_2, 77]	>40 µM
Ac-LRKLRKRLLLRKLRKRLL-NH2 [MU_10]	5 µM
WRKWRKRWW (Artificial polypeptide designated MU 45) [MU_45, 87; monomer on which MU 4 is based]	>40 µM
PRKPRKRPPPRKPRKRPP (Artificial polypeptide designated MU 20) [MU_20, 86]	>40 µM
TRKTRKRTTTRKTRKRTT (Artificial polypeptide designated MU 15) [MU_15, 83]	>40 µM
LRKLRKRLLLRKLRKRWW (Artificial polypeptide designated MU 112) [MU_112, 24]	5 µM
WRKWRKRWWLRKLRKRLL (Artificial polypeptide designated GIN 34)	12.5 µM
DRKDRKRDDDRKDRKRDD (Artificial polypeptide designated MU 3) [MU_3, 78]	>40 µM
GRKGRKRGGGRKGRKRGG (Artificial polypeptide designated MU 17) [MU_17, 84]	>40 µM
WRWRKRWRKWRWRKRWRK (Artificial polypeptide designated MU 27) [MU_27]	1.25 µM

* * *

MIC values (>80% reduction) FS4 values by entry
tested on: Fusarium solani 4 (FS4); experiment: Antifungal MIC (Example 4); type: cell-based; details: Fusarium solani 4; peptides; Tables 4 and 5

ORDERED RESIDUES	MIC values (>80% reduction) FS4
HRKHRKRHHHRKHRKRHH (Artificial polypeptide designated MU 19) [MU_19]	10 µM
LRKLRKRLLRLRKLRKRLLR (Artificial polypeptide designated MU 82) [MU_82, 21]	10 µM
YRKYRKRYYYRKYRKRYY (Artificial polypeptide designated GIN 41 or MU6) [MU_6]	20 µM
WRWKKKWRKWRWKKKWRK (Artificial polypeptide designated MU 26) [MU_26, 89]	10 µM
ERKERKREEERKERKREE (Artificial polypeptide designated MU 1) [MU_1, 76]	>40 µM
IRKIRKRIIIRKIRKRII (Artficial polypeptide designated MU 8) [MU_8]	40 µM
RRWRKRWRKWRWRKRWRK (Artificial polypeptide designated MU 28) [MU_28, 42]	2.5 µM
KRKKRKRKKKRKKRKRKK (Artificial polypeptide designated MU 18) [MU_18, 85]	>40 µM

* * *

MIC values (>80% reduction) FS3 values by entry
system: Fusarium solani 3 (FS3); test: Antifungal MIC (Example 4); assay type: cell-based; conditions: Fusarium solani 3; peptides; Tables 4 and 5
MEASURED PROPERTY: MIC values (>80% reduction) FS3 (µM)

ORDERED RESIDUES	QUANTITY UNIT	VALUE MEASURED
HRKHRKRHHHRKHRKRHH (Artificial polypeptide designated MU 19) [MU_19]	µM	40
IRKIRKRIIIRKIRKRII (Artficial polypeptide designated MU 8) [MU_8]	µM	20
FRKFRKRFFFRKFRKRFF (Artficial polypeptide designated MU7) [MU_7]	µM	5
KRKKRKRKKKRKKRKRKK (Artificial polypeptide designated MU 18) [MU_18, 85]	µM	2.5
WRKWRKRWWLRKLRKRLL (Artificial polypeptide designated GIN 34)	µM	1.25
CRKCRKRCCCRKCRKRCC (Artficial polypeptide designated MU 12) [MU_12]	µM	10
LRKLRKRLLLRKLRKRWW (Artificial polypeptide designated MU 112) [MU_112, 24]	µM	2.5

* * *

system: Fusarium solani 3 (FS3); assay: Antifungal MIC (Example 4); assay type: cell-based; settings: Fusarium solani 3; peptides; Tables 4 and 5
MEASURED PROPERTY: MIC values (>80% reduction) FS3

ORDERED RESIDUES	MEASURED PROPERTY	VALUE MEASURED
VRKVRKRVVVRKVRKRVV (Artificial polypeptide designated MU 14) [MU_14, 82]	MIC values (>80% reduction) FS3	>40 µM
SRKSRKRSSSRKSRKRSS (Artificial polypeptide designated MU 13) [MU_13, 81]	MIC values (>80% reduction) FS3	>40 µM
QRKQRKRQQQRKQRKRQQ (Artificial polypeptide designated MU 9) [MU_9, 79]	MIC values (>80% reduction) FS3	>40 µM
ERKERKREEERKERKREE (Artificial polypeptide designated MU 1) [MU_1, 76]	MIC values (>80% reduction) FS3	>40 µM
